Source of measurements: the supplement of paper PMC10567573

Let's look at some variants and their measured protein stability index.
B1: PKD2L1 (parent)
chain: YSGGGYYLDLPGSRQGSAEALRAL

Variants of: B1
Experimental protocol: protein stability index of a GFP-peptide fusion (GPS, HEK-293T) (PSI 1-6); higher = more stable;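 also: lentivirally expressed fusions sorted by FACS into six bins by GFP to DsRed ratio, PSI derived from sequencing read proportions per bin multiplied by bin number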
Recorded conditions: c terminus: a fixed tail appended
Returns: the value as a bare number; no unit string appended.

* E19G | 2.02

## Task Request the reported protein stability index associated with G16K
## Result 1.97

## Task Which protein stability index is listed for R22V ?
## Result 2.03
